tested on: Nicotinate-nucleotide adenylyltransferase NadD (Staphylococcus aureus N315); test: inhibitors of S. aureus NadD, primary screen, biochemical, colorimetric, uHTS (AID 602399); settings: purified NadD enzyme, colorimetric absorbance read-out; at 20 µM; stronger effect = higher value
The campaign covered roughly 360,000 compounds. About 2,800 (0.78%) were called active. The entries come from a sample that favours actives as a whole.
Record form. Attribute: inhibition. Fill in for each entry.
Answer format: numeric, % implied, no suffix.

Which inhibition value is on record for Cc1cc(C)nc(Nc2n[nH]c(-c3ccccc3N)n2)n1 ?
-2.89

Which inhibition value belongs to CN(C(=O)COC(=O)c1cc(-c2ccco2)nc2ccccc12)C1CCS(=O)(=O)C1 (stereo unspecified) ?
87.6

I'd like to know its inhibition. The molecule in question is O=C(Nc1ccc(S(=O)(=O)Nc2nccs2)cc1)c1cc(-c2ccncc2)nc2ccccc12
52.3

inhibition lookup needed for CC(C)Oc1c(Br)cc(Br)cc1/C=N/NC(N)=S , thanks.
6.4

Which measured inhibition value corresponds to CCN(CC)S(=O)(=O)c1cccc(-c2n[nH]c(=S)n2/N=C/c2ccc(C(=O)OC)cc2)c1 ?
24.3

Fill in: inhibition of CCCc1cc(=S)n2c([nH]c3ccccc32)c1C#N is ___
11.9

Which inhibition reading was recorded for the molecule COc1ccc2[nH]c(=O)c(CN(Cc3nnnn3CCc3ccccc3)CC3CCCO3)cc2c1 (stereo unspecified) ?
14.2

Returns the measured inhibition for the input molecule. Input: COc1cc(C(F)(F)F)c(C(=O)N(C)c2ccc(Cl)cc2)cn1
-3.26

Consider the molecule shown here: O=C1/C(=C/c2coc3ccc(O)cc3c2=O)SC(=S)N1c1ccccc1 What is its recorded inhibition?
44.8

GET /values?readout=inhibition&item= O=C(COC(=O)CCCNC(=O)c1ccc(Cl)cc1)Nc1cc(Cl)ccc1Cl
-4.1

# inhibition lookup, item CCCCCN(C(=O)CCC(=O)OCC(=O)NCc1ccc(OC)cc1)c1c(N)n(CCCC)c(=O)[nH]c1=O
-7.19

Form field: reported inhibition of COc1ccc(NC(=O)COc2ccc(C(=O)OCC(=O)N(C)C3CCS(=O)(=O)C3)cc2OC)cc1 (stereo unspecified)
-2.63

inhibition lookup needed for O=C1Nc2cc(Cl)c(Cl)cc2N(O)N1c1cc(Cl)cc(Cl)c1 , thanks.
-1.38

What value of inhibition has been reported for the following molecule? O=C(N/N=C/c1cccc(OC(=O)c2ccc([N+](=O)[O-])cc2)c1)c1cccnc1
-12.9

Looking for the measured inhibition of CC1CCC2(CC1)NC(=O)N(CC(=O)c1cccn1C)C2=O (stereo unspecified) , can you help?
-3.17

Fill in the blank: the reported inhibition of Nc1cccc(-c2cc(-c3ccccc3)nc(-c3cccc(N)c3)n2)c1 is ____.
13.8

# lookup: inhibition of CCOc1ccc(CN2CCNC(=O)C2CC(=O)NCCCC2CCCC2)cc1 (stereo unspecified)
8.04

Suppose we examine the molecule O=C(CCC(=O)N1CCCC1)Nc1ccc([N+](=O)[O-])cc1 ; what inhibition value has been reported?
-6.64

State the recorded inhibition for this entry: COc1ccc(NC(=O)N(C)C[C@@H]2OCc3cn(nn3)CCCC(=O)N([C@H](C)CO)C[C@H]2C)c(OC)c1
-0.14

// lookup inhibition for CCCNC(=O)c1cnc(-c2ccccc2)nc1-c1ccccc1
-3.59

# lookup: inhibition of CCOC(=O)c1ccc(NC(=O)c2c(N)n(C)c(=O)[nH]c2=O)cc1
-3.34

Suppose we examine the molecule O=C(NCC(=O)N1CCN(c2ccccc2O)CC1)c1ccc2ccccc2c1 ; what inhibition value has been reported?
31.5

// lookup inhibition for COc1cc(C2CC(=O)N3CN(Cc4ccccc4)CSC3=C2C#N)ccc1OCc1ccccc1 (stereo unspecified)
31.4

Name the recorded inhibition for CCCCN(C(=O)c1ccc(S(=O)(=O)N2CCOCC2)cc1)C1CCS(=O)(=O)C1 (stereo unspecified) .
-1.78

Returns the measured inhibition for the input molecule. Input: Cc1ccc(Cl)cc1N1CCN(C(=O)c2cccc3c(=O)c(C)c(-c4ccccc4)oc23)CC1
4.56

Report inhibition for Cc1ccc2cccc(O)c2[n+]1[O-] please.
-2.68

Any idea what inhibition was measured for Cc1cc(-c2n[nH]c(=S)n2/N=C/C(Br)=C/c2ccccc2)n[nH]1 ?
17.3

Recorded inhibition of CCCNC(=O)C1CC(=O)N(c2ccc(OCc3ccccc3)cc2)C1 (stereo unspecified) , please.
0.155

State the recorded inhibition for this entry: COC(=O)c1c(NC(=O)COc2ccc(Cl)cc2Cl)sc2c1CC(C)(C)NC2(C)C
-5.59

Need inhibition, item O=C1N(Cc2ccc3c(c2)OCO3)c2ccccc2C1(O)c1c[nH]c2ccccc12 (stereo unspecified)
34.1

Recorded inhibition of O=C(Nc1ccc(Br)cn1)C1CCN(S(=O)(=O)c2cccs2)CC1 , please.
-7.26

Which inhibition is listed for Cc1[nH]c(N)nc(=S)c1CCCNc1ccccc1 ?
4.24

Requested field: inhibition. Item: Cc1ccc(C(=O)Oc2coc(CSc3nnc(NC(=O)c4cccs4)s3)cc2=O)cc1C
58.4

Given the entry S=c1[nH]nc(-c2cc(-c3ccccc3)n[nH]2)n1/N=C/c1c2ccccc2cc2ccccc12 , report its measured inhibition.
49.4

Given the entry O=C(COc1ccc(/C=N/NC(=O)c2ccc(O)cc2)cc1)Nc1ccc([N+](=O)[O-])cc1 , report its measured inhibition.
71.1

What value of measured inhibition is listed for COc1ccc(N2CCN(C(=O)CNC(=O)c3ccc(C(C)(C)C)cc3)CC2)cc1 ?
-1.98

Entry Cc1cccc(C)c1-n1nnnc1C1(C)CCC(=O)N1CCOc1ccccc1 (stereo unspecified) : reported inhibition = ?
-5.82

Which measured inhibition value corresponds to OC(c1ccc(F)cc1)c1ncc(-c2cccc(C(F)(F)F)c2)[nH]1 (stereo unspecified) ?
0.456

If you can, please state the reported inhibition value of CCC(C)Cn1c(O)cc2nn(-c3nc4ccccc4s3)c(=O)c-2c1C (stereo unspecified) .
81.3

Would you mind telling me what inhibition value was observed for CCOc1ccc(S(=O)(=O)N2CCCCC2)cc1NC(=O)CN1CCCC1c1cccs1 (stereo unspecified) ?
5.31

Field request: inhibition | item: CC1(C(=O)NCc2ccc3c(c2)OCO3)CCN1C(=O)Cc1cccc2ccccc12 (stereo unspecified)
-4.65
